B1: Cold shock protein CspB, residues 1 to 66; numbered along this chain, P41016 (parent)
chain: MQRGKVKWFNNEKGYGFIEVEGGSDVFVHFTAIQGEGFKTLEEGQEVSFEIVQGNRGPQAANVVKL

# Variants of: B1
# experiment notes: abundance fitness (aPCA) (normalised: wild type 0, dead -1); higher = more abundant; growth selection in yeast, the domain comes from the species named
# settings: Bacillus caldolyticus
Listing of entries alongside the reported abundance fitness.
Reply: number alone, nothing else.

Answered cases to consult:
E21Q :: -0.007
G16R :: -1.08
F27G :: -0.229
E21H :: 0.027

Prompt line: Quote abundance fitness reported for E43Q please.
Response line: 0.025
